Target: T1, CD27 expressed on the cell surface (HT1080_CD27 cells) (human, UniProt P26842 20-260); note: test concentration or dose not given here
T1 sequence (looked up): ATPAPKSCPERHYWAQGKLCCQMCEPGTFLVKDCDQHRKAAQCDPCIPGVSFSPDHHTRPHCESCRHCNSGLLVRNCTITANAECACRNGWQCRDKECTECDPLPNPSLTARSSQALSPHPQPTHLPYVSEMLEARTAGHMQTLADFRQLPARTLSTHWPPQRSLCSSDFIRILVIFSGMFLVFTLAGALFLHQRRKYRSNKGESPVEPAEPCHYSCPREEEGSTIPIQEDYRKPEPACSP
Assay: cell-based or functional assay
endpoint name: IL-8 [abs. corr.] (abs. corr.)
Give just the number in abs. corr.; leave the unit off.

Entry P018.S.03.A.E04 (antibody, V domains shown, V regions on human Ig constant parts; also called AB27_52) VH: QEQLKESGGGLVTPGGTLTLTCTVSGIDLSSYAISWVRQAPGKGLEWIGYIYVGSTTTWYASWVKGRSTISKTSSTTVDLKMTSLTTEDTATYFCARAYDSGYIGNSFYIFHPWGPGTLVTVSS VL: DIVMTQTPASVSATVGGTVTIKCQASQTISSRLAWYQQKPGQPPKLLIYSASTLASGVSSRFKGSGSGTEFTLTISDLESADGATYYCAGYGGLGITAFGGGTEVVVK — recorded IL-8 [abs. corr.] = 0.2

Entry P018.S.07.A.G02 (antibody, V domains shown, V regions on human Ig constant parts; also called AB27_129) VH: QSVEESGGRLVTPGTPLTLTCTVSGFSLSSYDMSWVRQAPGKGLEWIGWITTDGGTDYASWAKGRFTVSKASTTVDLKITSPTTEDTATYFCARGYASFNLWGQGTLVTVSS VL: AQVLTQTPSSVSAAVGGTVTINCQSSQSVLSNSYLAWYQQKPGQPPKLLIYAASSLASGVPSRFKGSGSGTQFTLTISDLESDDAATYYCQGTDYSGGWYVAFGGGTEVVVK — recorded IL-8 [abs. corr.] = 0.725
